Listed here are compounds together with their documented minimum inhibitory concentration.
# Tested on: Pasteurella multocida
# testMethodNotes: minimum inhibitory concentration (MIC)
# runConditions: isolate (source animal id): 255

The cases that follow already have their minimum inhibitory concentration on record.
Request: What value of minimum inhibitory concentration has been recorded for this entry: `C=C[C@]1(C)C[C@@H](OC(=O)CSCCN(CC)CC)[C@]2(C)[C@H](C)CC[C@]3(CCC(=O)[C@H]32)[C@@H](C)[C@@H]1O`
Response: 16 µg/mL

Request: What does the record list as minimum inhibitory concentration for `CN1C[C@@H]2C[C@H]1CN2c1cc2c(cc1F)c(=O)c(C(=O)O)cn2C1CC1` ?
Response: > 1 µg/mL

Request: What minimum inhibitory concentration value was documented for this compound, CNC(C)C1CCC(N)C(OC2C(N)CC(N)C(OC3OCC(C)(O)C(NC)C3O)C2O)O1 (stereo unspecified) ?
Response: 4 µg/mL

Request: What value of minimum inhibitory concentration has been recorded for this entry: `NC[C@@H]1O[C@H](O[C@H]2[C@@H](O)[C@H](O[C@@H]3[C@@H](O)[C@H](N)C[C@H](N)[C@H]3O[C@H]3O[C@H](CN)[C@@H](O)[C@H](O)[C@H]3N)O[C@@H]2CO)[C@H](N)[C@@H](O)[C@@H]1O`
Response: > 32 µg/mL

Request: // lookup minimum inhibitory concentration for `CC1(C)S[C@@H]2[C@H](NC(=O)Cc3ccccc3)C(=O)N2[C@H]1C(=O)O`
Response: ≤ 0.12 µg/mL

Continuing:
Request: If you can, please state the reported minimum inhibitory concentration value of `CN(C)[C@@H]1C(O)=C(C(N)=O)C(=O)[C@@]2(O)C(O)=C3C(=O)c4c(O)cccc4[C@@](C)(O)[C@H]3C[C@@H]12` .
Response: > 8 µg/mL

----------
Reported minimum inhibitory concentration by item:
# System: Histophilus somni
# testMethodNotes: minimum inhibitory concentration (MIC)
# runConditions: isolate (source animal id): 254
// units = µg/mL; emit number, no label

As a guide, the following entries are already answered.
Request: Provide value of minimum inhibitory concentration for this record tested with Histophilus somni: CC[C@H]1OC(=O)C[C@@H](O)[C@H](C)[C@@H](O[C@@H]2O[C@H](C)[C@@H](O[C@H]3C[C@@](C)(O)[C@@H](O)[C@H](C)O3)[C@H](N(C)C)[C@H]2O)[C@@H](CC=O)C[C@@H](C)C(=O)/C=C/C(C)=C/[C@@H]1CO[C@@H]1O[C@H](C)[C@@H](O)[C@@H](OC)[C@H]1OC [Tylosin]
Response: 16

Request: Report minimum inhibitory concentration for CN(C)[C@@H]1C(O)=C(C(N)=O)C(=O)[C@@]2(O)C(O)=C3C(=O)c4c(O)cccc4[C@@](C)(O)[C@H]3C[C@@H]12 [Tetracycline] tested on Histophilus somni.
Response: 4

# next compound below
Request: Item: C=C[C@]1(C)C[C@@H](OC(=O)CSCCN(CC)CC)[C@]2(C)[C@H](C)CC[C@]3(CCC(=O)[C@H]32)[C@@H](C)[C@@H]1O [Tiamulin] Test system: Histophilus somni Read-out: minimum inhibitory concentration Value: ?
Response: 2

----------
# System: Histophilus somni
# testMethodNotes: minimum inhibitory concentration (MIC)
# runConditions: isolate (source animal id): 128
observationType: minimum inhibitory concentration (µg/mL)
// return numeric value only (unit: µg/mL, not printed)

Consider the following illustrative entries.
Request: State the recorded minimum inhibitory concentration for this entry: `C=C[C@]1(C)C[C@@H](OC(=O)CSCCN(CC)CC)[C@]2(C)[C@H](C)CC[C@]3(CCC(=O)[C@H]32)[C@@H](C)[C@@H]1O`
Response: 1

Request: Quick one: minimum inhibitory concentration of `CS(=O)(=O)c1ccc([C@@H](O)[C@@H](CF)NC(=O)C(Cl)Cl)cc1` ?
Response: 0.5

Continue with the compound presented below.
Request: Tell me the measured minimum inhibitory concentration of `CC[C@H]1OC(=O)C[C@@H](O)[C@H](C)[C@@H](O[C@@H]2O[C@H](C)[C@@H](O)[C@H](N(C)C)[C@H]2O)[C@@H](CCN2C[C@H](C)C[C@H](C)C2)C[C@@H](C)C(=O)/C=C/C(C)=C/[C@@H]1CO[C@@H]1O[C@H](C)[C@@H](O)[C@@H](OC)[C@H]1OC` , please.
Response: 4

----------
# reported minimum inhibitory concentration; entries follow
# System: Pasteurella multocida
# testMethodNotes: minimum inhibitory concentration (MIC)
# runConditions: isolate (source animal id): 294

Worked cases, answers included:
Request: Would you kindly share the measured minimum inhibitory concentration for C=C[C@]1(C)C[C@@H](OC(=O)CSCCN(CC)CC)[C@]2(C)[C@H](C)CC[C@]3(CCC(=O)[C@H]32)[C@@H](C)[C@@H]1O [Tiamulin] ?
Response: 32 µg/mL

Request: Report minimum inhibitory concentration for CC[C@H]1OC(=O)C[C@@H](O)[C@H](C)[C@@H](O[C@@H]2O[C@H](C)[C@@H](O)[C@H](N(C)C)[C@H]2O)[C@@H](CCN2C[C@H](C)C[C@H](C)C2)C[C@@H](C)C(=O)/C=C/C(C)=C/[C@@H]1CO[C@@H]1O[C@H](C)[C@@H](O)[C@@H](OC)[C@H]1OC [Tilmicosin] please.
Response: > 16 µg/mL

Request: So what does the record say about minimum inhibitory concentration for NC[C@@H]1O[C@H](O[C@H]2[C@@H](O)[C@H](O[C@@H]3[C@@H](O)[C@H](N)C[C@H](N)[C@H]3O[C@H]3O[C@H](CN)[C@@H](O)[C@H](O)[C@H]3N)O[C@@H]2CO)[C@H](N)[C@@H](O)[C@@H]1O [Neomycin] ?
Response: > 32 µg/mL

Request: # query: minimum inhibitory concentration of entry CC1(C)S[C@@H]2[C@H](NC(=O)Cc3ccccc3)C(=O)N2[C@H]1C(=O)O [Penicillin]
Response: 0.25 µg/mL

Turning to the following molecule.
Request: Looking for the measured minimum inhibitory concentration of COc1cc(NS(=O)(=O)c2ccc(N)cc2)nc(OC)n1 [sulfadimethoxine] , can you help?
Response: > 256 µg/mL

----------
# System: Mannheimia haemolytica
# testMethodNotes: minimum inhibitory concentration (MIC)
# runConditions: isolate (source animal id): 171
Below, each of the compounds is paired with its reported minimum inhibitory concentration value.

Request: Could you tell me which minimum inhibitory concentration is on file for `CC[C@H]1OC(=O)C[C@@H](O)[C@H](C)[C@@H](O[C@@H]2O[C@H](C)[C@@H](O)[C@H](N(C)C)[C@H]2O)[C@@H](CCN2CCCCC2)C[C@@H](C)C(=O)/C=C/C(C)=C/[C@@H]1CN1CCCCC1` ?
Response: ≤ 1 µg/mL

***
Request: Which measured minimum inhibitory concentration value corresponds to `CC[C@H]1OC(=O)C[C@@H](O)[C@H](C)[C@@H](O[C@@H]2O[C@H](C)[C@@H](O[C@H]3C[C@@](C)(O)[C@@H](O)[C@H](C)O3)[C@H](N(C)C)[C@H]2O)[C@@H](CC=O)C[C@@H](C)C(=O)/C=C/C(C)=C/[C@@H]1CO[C@@H]1O[C@H](C)[C@@H](O)[C@@H](OC)[C@H]1OC` ?
Response: > 32 µg/mL

Request: Given `COc1cc(NS(=O)(=O)c2ccc(N)cc2)nc(OC)n1` , state its recorded minimum inhibitory concentration.
Response: > 256 µg/mL

Request: For the compound shown here, `NC[C@@H]1O[C@H](O[C@H]2[C@@H](O)[C@H](O[C@@H]3[C@@H](O)[C@H](N)C[C@H](N)[C@H]3O[C@H]3O[C@H](CN)[C@@H](O)[C@H](O)[C@H]3N)O[C@@H]2CO)[C@H](N)[C@@H](O)[C@@H]1O` , give the reported minimum inhibitory concentration.
Response: ≤ 4 µg/mL

----------
# Test system: Pasteurella multocida
# testMethodNotes: minimum inhibitory concentration (MIC)
# runConditions: isolate (source animal id): 229
Each entry below carries its reported minimum inhibitory concentration.

These solved cases illustrate the format of a correct answer.
Request: Please report the recorded minimum inhibitory concentration for `CS(=O)(=O)c1ccc([C@@H](O)[C@@H](CF)NC(=O)C(Cl)Cl)cc1` .
Response: 8 µg/mL

Request: Could you share which minimum inhibitory concentration value was measured for `CN1C[C@@H]2C[C@H]1CN2c1cc2c(cc1F)c(=O)c(C(=O)O)cn2C1CC1` ?
Response: > 1 µg/mL

Request: # query: minimum inhibitory concentration of entry `CN[C@@H]1[C@H](O)[C@H](NC)[C@H]2O[C@@]3(O)C(=O)C[C@@H](C)O[C@H]3O[C@@H]2[C@H]1O`
Response: 32 µg/mL

Request: Quick check: minimum inhibitory concentration of `CCCNC[C@]1(O)[C@H](C)O[C@@H](O[C@H]2[C@H](C)[C@@H](O[C@@H]3O[C@H](C)C[C@H](N(C)C)[C@H]3O)[C@](C)(O)C[C@@H](C)CN[C@H](C)[C@@H](O)[C@](C)(O)[C@@H](CC)OC(=O)[C@@H]2C)C[C@@]1(C)OC` ?
Response: ≤ 8 µg/mL

Request: Could you share which minimum inhibitory concentration value was measured for `CC1(C)S[C@@H]2[C@H](NC(=O)[C@H](N)c3ccccc3)C(=O)N2[C@H]1C(=O)O` ?
Response: ≤ 0.25 µg/mL

Here is the next item to consider.
Request: Recorded minimum inhibitory concentration of `C=C[C@]1(C)C[C@@H](OC(=O)CSCCN(CC)CC)[C@]2(C)[C@H](C)CC[C@]3(CCC(=O)[C@H]32)[C@@H](C)[C@@H]1O` , please.
Response: 32 µg/mL
